assay_target: HiBiT tagged GSPT1 (Homo sapiens, UniProt P15170+Q96SW2)
Sequence (P15170 whole entry): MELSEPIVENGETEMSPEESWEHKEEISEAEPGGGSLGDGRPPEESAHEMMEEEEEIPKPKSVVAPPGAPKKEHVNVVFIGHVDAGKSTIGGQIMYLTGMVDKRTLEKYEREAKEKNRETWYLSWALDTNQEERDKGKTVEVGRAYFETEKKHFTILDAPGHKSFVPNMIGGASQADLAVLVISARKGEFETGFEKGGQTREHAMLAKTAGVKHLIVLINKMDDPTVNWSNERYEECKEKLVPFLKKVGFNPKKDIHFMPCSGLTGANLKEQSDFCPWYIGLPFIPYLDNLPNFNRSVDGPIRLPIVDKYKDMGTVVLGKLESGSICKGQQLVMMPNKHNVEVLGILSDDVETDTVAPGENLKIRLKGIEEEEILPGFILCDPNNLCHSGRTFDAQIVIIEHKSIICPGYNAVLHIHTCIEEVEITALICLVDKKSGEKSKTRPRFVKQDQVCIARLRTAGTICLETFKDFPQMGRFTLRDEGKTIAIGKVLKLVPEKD
Sequence (Q96SW2 whole entry): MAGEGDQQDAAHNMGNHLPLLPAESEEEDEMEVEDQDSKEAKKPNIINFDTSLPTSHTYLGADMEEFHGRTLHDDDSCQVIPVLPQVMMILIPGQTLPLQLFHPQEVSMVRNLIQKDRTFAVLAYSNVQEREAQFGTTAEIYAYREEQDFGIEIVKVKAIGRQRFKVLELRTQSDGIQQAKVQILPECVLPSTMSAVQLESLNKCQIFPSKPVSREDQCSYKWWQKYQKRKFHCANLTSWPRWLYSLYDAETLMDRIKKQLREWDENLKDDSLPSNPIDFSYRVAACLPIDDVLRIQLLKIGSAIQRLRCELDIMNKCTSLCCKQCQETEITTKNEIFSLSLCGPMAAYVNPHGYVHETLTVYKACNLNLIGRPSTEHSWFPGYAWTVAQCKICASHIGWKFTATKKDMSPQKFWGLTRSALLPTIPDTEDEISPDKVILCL
Sequence (Q16531 whole entry partner): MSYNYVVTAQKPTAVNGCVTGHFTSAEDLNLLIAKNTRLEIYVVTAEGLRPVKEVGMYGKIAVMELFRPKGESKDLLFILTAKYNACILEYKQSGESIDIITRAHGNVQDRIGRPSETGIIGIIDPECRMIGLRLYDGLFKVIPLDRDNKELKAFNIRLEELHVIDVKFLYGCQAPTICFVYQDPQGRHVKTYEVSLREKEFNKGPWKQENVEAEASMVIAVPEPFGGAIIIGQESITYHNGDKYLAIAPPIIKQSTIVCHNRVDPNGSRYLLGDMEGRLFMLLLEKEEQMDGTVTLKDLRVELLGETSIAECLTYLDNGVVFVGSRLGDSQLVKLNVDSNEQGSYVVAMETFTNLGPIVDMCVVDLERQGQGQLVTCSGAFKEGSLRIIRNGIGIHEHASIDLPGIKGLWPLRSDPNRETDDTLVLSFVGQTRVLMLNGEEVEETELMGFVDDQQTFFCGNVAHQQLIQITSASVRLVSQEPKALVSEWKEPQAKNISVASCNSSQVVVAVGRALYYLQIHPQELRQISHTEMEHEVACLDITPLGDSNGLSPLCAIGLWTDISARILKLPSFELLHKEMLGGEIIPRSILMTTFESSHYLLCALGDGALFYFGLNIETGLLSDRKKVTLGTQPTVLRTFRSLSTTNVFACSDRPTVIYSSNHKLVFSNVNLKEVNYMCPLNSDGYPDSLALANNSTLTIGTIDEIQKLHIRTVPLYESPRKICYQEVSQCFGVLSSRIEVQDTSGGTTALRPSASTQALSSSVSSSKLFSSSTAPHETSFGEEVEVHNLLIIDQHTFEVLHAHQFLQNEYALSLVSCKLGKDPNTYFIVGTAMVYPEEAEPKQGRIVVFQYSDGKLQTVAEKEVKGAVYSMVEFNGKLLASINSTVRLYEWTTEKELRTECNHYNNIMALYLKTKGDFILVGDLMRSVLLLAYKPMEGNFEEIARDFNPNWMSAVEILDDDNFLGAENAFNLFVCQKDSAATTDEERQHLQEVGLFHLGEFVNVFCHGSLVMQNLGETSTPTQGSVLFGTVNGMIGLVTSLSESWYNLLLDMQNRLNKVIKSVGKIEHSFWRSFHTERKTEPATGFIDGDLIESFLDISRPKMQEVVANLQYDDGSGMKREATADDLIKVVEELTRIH
experimental_details: GSPT1 degradation assay (HiBiT assay)
Type: cell-based
condition_summary: HT-1080, HT-1080 cells, 20 hours; maximum GSPT1 degradation
endpoint_label: Dmax (%)
Form entry: value (%) — number only.

Quick check: Dmax on HiBiT tagged GSPT1 (Homo sapiens, UniProt P15170+Q96SW2), item O=C1CCC(N2Cc3cc(C(=O)N[C@H](c4ncccc4Cl)C4(F)CCC4)ccc3C2=O)C(=O)N1 (stereo in doubt) ?
25

Also check O=C1CCC(N2Cc3cc(C(=O)N[C@H](c4ccc(F)cc4Cl)C4CCC4)ccc3C2=O)C(=O)N1 (stereo in doubt)
30.4

Also check Cn1cc(-c2cccnc2[C@@H](NC(=O)c2ccc3c(c2)CN([C@H]2CCC(=O)NC2=O)C3=O)C2CCC2)cn1 (single isomer, unassigned)
15.2

====

Could you please report measured DC50 for the items listed next?
assay_target: HiBiT tagged CK1α (Homo sapiens, UniProt P48729+Q96SW2)
Sequence (P48729 whole entry, one chain of several): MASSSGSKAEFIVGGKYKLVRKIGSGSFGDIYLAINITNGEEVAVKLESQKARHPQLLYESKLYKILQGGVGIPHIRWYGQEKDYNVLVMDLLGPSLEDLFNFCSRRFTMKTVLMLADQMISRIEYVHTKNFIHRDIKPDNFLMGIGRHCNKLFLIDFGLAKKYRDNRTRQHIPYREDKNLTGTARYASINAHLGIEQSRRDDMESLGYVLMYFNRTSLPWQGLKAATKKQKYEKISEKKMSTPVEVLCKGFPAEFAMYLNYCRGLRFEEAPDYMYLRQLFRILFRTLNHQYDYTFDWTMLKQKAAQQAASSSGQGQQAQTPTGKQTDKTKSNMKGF
experimental_details: CK1α degradation assay (HiBiT assay)
Assay type: cell-based
condition_summary: HT-1080 cells, 20 hours; concentration at 50% CK1α degradation
Form entry: value (nM) — number only.

Quick check: DC50 on HiBiT tagged CK1α (Homo sapiens, UniProt P48729+Q96SW2), item O=C1CCC(N2Cc3cc(C(=O)N[C@H](c4cccc(F)c4)C4CC4)ccc3C2=O)C(=O)N1 (stereo in doubt) [Compound 26] ?
417

Also check O=C1CCC(N2Cc3cc(C(=O)N[C@H](c4ncccc4F)C4CCC4)ccc3C2=O)C(=O)N1 (stereo in doubt) [Compound 24]
363

Also check O=C1CCC(N2Cc3cc(C(=O)NC(c4ccc(F)cc4)C4CCCC4)ccc3C2=O)C(=O)N1 (stereo not drawn) [Compound 37]
72.7

====

Could you please report measured Dmax for the items listed next?
assay_target: HiBiT tagged CK1α (Homo sapiens, UniProt P48729+Q96SW2)
experimental_details: CK1α degradation assay (HiBiT assay)
Assay type: cell-based
condition_summary: HT-1080, HT-1080 cells, 20 hours; maximum CK1α degradation
Form entry: value (%) — number only.

Endpoint output: Dmax of O=C1CCC(N2Cc3cc(C(=O)N[C@H](c4ncccc4-c4ccc(F)cc4)C4CCC4)ccc3C2=O)C(=O)N1 (stereo in doubt) . Value?
66

Also check O=C1CCC(N2Cc3cc(C(=O)N[C@H](c4ncc(F)cc4Cl)C4CCC4)ccc3C2=O)C(=O)N1 (stereo in doubt)
62.1

Also check O=C1CCC(N2Cc3cc(C(=O)N[C@@H](c4ccc(F)cc4)C4CC(F)(F)C4)ccc3C2=O)C(=O)N1 (single isomer, unassigned)
75.9

Also check O=C1CCC(N2Cc3cc(C(=O)N[C@@H](c4cccc(F)c4)C4CC4)ccc3C2=O)C(=O)N1 (stereo in doubt)
54.5

Also check O=C1CCC(N2Cc3cc(C(=O)N[C@H](c4ccc(F)cn4)C4(F)CCC4)ccc3C2=O)C(=O)N1 (stereo in doubt)
63

Also check O=C1CC[C@H](N2Cc3cc(C(=O)N[C@H](c4ccc(Cl)cc4F)C4CCC4)ccc3C2=O)C(=O)N1 (racemic)
57.8

Also check O=C1CCC(N2Cc3cc(C(=O)N[C@H](c4ncc(Cl)cc4F)C4CCC4)ccc3C2=O)C(=O)N1 (stereo in doubt)
61.1

Also check COc1ccccc1C(NC(=O)c1ccc2c(c1)CN(C1CCC(=O)NC1=O)C2=O)C1CC1 (centres unmarked)
73.2

Also check N#Cc1cccc(C(NC(=O)c2ccc3c(c2)CN(C2CCC(=O)NC2=O)C3=O)C2CC2)c1 (centres unmarked)
49.5

Also check O=C1CCC(N2Cc3cc(C(=O)N[C@@H](c4c(F)cccc4F)C4CCC4)ccc3C2=O)C(=O)N1 (stereo in doubt)
67.9

Also check N#Cc1ccccc1[C@@H](NC(=O)c1ccc2c(c1)CN(C1CCC(=O)NC1=O)C2=O)C1CC1 (stereo in doubt)
66.7

Also check O=C1CC[C@@H](N2Cc3cc(C(=O)NC(c4ccc(F)cc4)C4CCCC4)ccc3C2=O)C(=O)N1 (single isomer, unassigned)
69.8

Also check O=C1CCC(N2Cc3cc(C(=O)N[C@@H](c4ccc(F)cc4)C4CCC4)ccc3C2=O)C(=O)N1 (stereo in doubt)
50.4

Also check O=C1CCC(N2Cc3cc(C(=O)N[C@H](c4cccc(F)c4)C4CC4)ccc3C2=O)C(=O)N1 (stereo in doubt)
58.4

Also check O=C1CCC(N2Cc3cc(C(=O)NC(c4ccc(F)c(F)c4)C4CCC4)ccc3C2=O)C(=O)N1 (single isomer, unassigned) [Compound 47]
56.1

Also check O=C1CCC(N2Cc3cc(C(=O)NC(c4c(F)cccc4F)C4CCC4)ccc3C2=O)C(=O)N1 (centres unmarked)
70.7

Also check O=C1CCC(N2Cc3cc(C(=O)N[C@H](c4ccc(F)cc4)C4COC4)ccc3C2=O)C(=O)N1 (stereo in doubt)
49.7

Also check Cc1ccc(NC(=O)NCc2ccc3c(c2)CN(C2CCC(=O)NC2=O)C3=O)cc1Cl (centres unmarked) [CC-885, reference compound]
53.7

Also check COc1cccc([C@@H](NC(=O)c2ccc3c(c2)CN(C2CCC(=O)NC2=O)C3=O)C2CC2)c1 (stereo in doubt)
59.3

Also check Cc1cccc([C@H](NC(=O)c2ccc3c(c2)CN(C2CCC(=O)NC2=O)C3=O)C2CC2)c1 (stereo in doubt)
58.8

Also check O=C1CCC(N2Cc3cc(C(=O)N[C@@H](c4cccc(C(F)(F)F)c4)C4CC4)ccc3C2=O)C(=O)N1 (stereo in doubt)
56.3

Also check O=C1CCC(N2Cc3cc(C(=O)N[C@H](c4ncc(Cl)cc4Cl)C4CCC4)ccc3C2=O)C(=O)N1 (stereo in doubt)
65.9

Also check O=C1CCC(N2Cc3cc(C(=O)N[C@H](c4c(F)cccc4F)C4CC4)ccc3C2=O)C(=O)N1 (stereo in doubt)
68.1

Also check O=C1CCC(N2Cc3cc(C(=O)N[C@@H](c4cccc(Cl)c4)C4CCC4)ccc3C2=O)C(=O)N1 (stereo in doubt)
55.4

Also check O=C1CCC(N2Cc3cc(C(=O)N[C@H](c4ncc(F)cc4Cl)C4CC4)ccc3C2=O)C(=O)N1 (stereo in doubt)
61.7

Also check O=C1CCC(N2Cc3cc(C(=O)N[C@H](c4ccc(Cl)cc4)C4CC(F)(F)C4)ccc3C2=O)C(=O)N1 (stereo in doubt)
67
